The reported measurements were obtained from patent US20250027068.

biological target: pooled human IgG
Recorded Enzyme Activity Endpoint Assay: scIgG values for a group of proteins are listed next.
All answers are understood in ng/µL, so give the number only.

Protein: PRT-277 (protein) MVTSVWTKGVTPPTDFIYGEDVLHAPYKAGQGWYDITKLFNGKDNLLCGAATAGNMLHWWFDQNKEQIENYLKKHPEKQKIIFNNQELFDLKAAIDTKDSQLDSKLFEYFLEKAFPNLSTKHLGVFPDHVIDMFINGYRLSLLNHGPTPVKRGSKDKRGGIFDAVFTRGVQSKLLTNRHDLKNKTLKEISDLIKQELTEGKALGISHTYANGRINHVINLWGADFDAEGNLEAIAVTDSDTNASIGMKKYFVGVNSSGKVAISAKEIEEDNIGAQVLGLFTLSTGQDIWNQTN
Observed Measurement: 705

Below: the item to evaluate.
Param item = PRT-18 (protein) MANQEIRYSEETPYHVTSVWTKGVTPPTNFTQGEDVFHAPYIANQGWYDITKTFNGKDDLLCGAATAGNMLHWWFDQNKEEIEKYLEEHPEKQKINFNGEQMFDVKEVIDTKDSQLDSKLFEYFKEKAFPYLSTKHLGVFPDHVIDMFINGYRLNLTNHGPTPVKEGSKDPRGGIFDAVFTRGDQSKLLTERHDFKEKTLKEISQLIKQELTEGKALGLSHTYANVRINHVINLWGADFDSEGNLEAIYVTDSDSNASIGMKKYFVGVNSAGKVAISAKEIEEDNIGAQVLGLFTLSTGQDIWEQTN ; retrieve measured Enzyme Activity Endpoint Assay: scIgG.
11
